Overview of reported pKd across a group of binders:
Target: T1, EsCas13d, nuclease-dead (Eubacterium siraeum, UniProt B0MS50, R295A;H300A;R849A;H854A)
T1 sequence: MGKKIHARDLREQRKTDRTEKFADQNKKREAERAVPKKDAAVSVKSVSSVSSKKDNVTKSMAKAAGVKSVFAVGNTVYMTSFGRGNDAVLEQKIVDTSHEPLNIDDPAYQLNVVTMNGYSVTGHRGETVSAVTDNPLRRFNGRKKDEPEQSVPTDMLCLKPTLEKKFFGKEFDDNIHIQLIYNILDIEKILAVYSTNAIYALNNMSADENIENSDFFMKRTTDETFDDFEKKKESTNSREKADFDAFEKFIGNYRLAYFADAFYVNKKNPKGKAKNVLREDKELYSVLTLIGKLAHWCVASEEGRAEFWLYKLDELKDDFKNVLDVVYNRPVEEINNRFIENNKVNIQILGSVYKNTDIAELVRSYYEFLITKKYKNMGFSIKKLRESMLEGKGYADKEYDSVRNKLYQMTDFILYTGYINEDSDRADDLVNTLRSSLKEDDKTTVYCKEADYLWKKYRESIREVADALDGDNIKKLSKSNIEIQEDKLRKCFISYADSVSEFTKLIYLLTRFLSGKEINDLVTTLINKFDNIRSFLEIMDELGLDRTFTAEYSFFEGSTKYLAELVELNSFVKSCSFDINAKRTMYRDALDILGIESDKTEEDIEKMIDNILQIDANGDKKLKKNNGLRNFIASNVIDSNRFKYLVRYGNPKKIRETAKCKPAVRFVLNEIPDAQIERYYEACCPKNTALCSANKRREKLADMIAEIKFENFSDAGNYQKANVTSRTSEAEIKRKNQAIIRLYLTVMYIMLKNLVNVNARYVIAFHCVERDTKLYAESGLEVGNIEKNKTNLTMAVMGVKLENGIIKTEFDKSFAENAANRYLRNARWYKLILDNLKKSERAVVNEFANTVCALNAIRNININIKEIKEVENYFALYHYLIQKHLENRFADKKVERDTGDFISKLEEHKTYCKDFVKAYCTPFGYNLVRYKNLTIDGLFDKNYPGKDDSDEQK
Assay: crRNA (strand 1, pre-loaded); Mg2+; 40 mM Tris-HCl pH 7.5, 150 mM NaCl, 6 mM MgCl2, 1 mM DTT, 0.1% Tween-20, 0.2 mg/ml BSA; 25 C; 10 min per concentration, then washed
Conditions: tags: His6-TwinStrep-SUMO cleaved; N-terminal SNAP kept (SNAP-Surface 488); label: 3' end held by stalled T7 RNA polymerase
Notebook: values listed as pKd are -log10 of the concentration (mol/L).

>>> measured_value("target 1 MT 5'PFS GGC 3'PFS UGC (mixed) RNA 1: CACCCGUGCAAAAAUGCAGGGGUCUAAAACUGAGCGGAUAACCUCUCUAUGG RNA 2: GGGAAUGGAUCCACAUCUACGAAUUCGGCCCAUAGAGAGGUUAUCCGCUCAUGCAGAUCGGAAGAGCACACGU")
8.07

Attention now shifts to the item below.
Looking up target 3 insG 3' of 7,insA 3' of 3 (mixed) RNA 1: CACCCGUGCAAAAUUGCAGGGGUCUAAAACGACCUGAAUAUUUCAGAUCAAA RNA 2: GGGAAUGGAUCCACAUCUACGAAUUCGUUUUUGAUCUGAAAUAUUGCAGGAUCUGCAGAUCGGAAGAGCACACGU , I see its pKd listed as 7.42
